tgt: human KDR (Homo sapiens)
Construct: expressed in transfected cells; host or cells: NIH 3T3 cells
Sequence (P35968 20-1356): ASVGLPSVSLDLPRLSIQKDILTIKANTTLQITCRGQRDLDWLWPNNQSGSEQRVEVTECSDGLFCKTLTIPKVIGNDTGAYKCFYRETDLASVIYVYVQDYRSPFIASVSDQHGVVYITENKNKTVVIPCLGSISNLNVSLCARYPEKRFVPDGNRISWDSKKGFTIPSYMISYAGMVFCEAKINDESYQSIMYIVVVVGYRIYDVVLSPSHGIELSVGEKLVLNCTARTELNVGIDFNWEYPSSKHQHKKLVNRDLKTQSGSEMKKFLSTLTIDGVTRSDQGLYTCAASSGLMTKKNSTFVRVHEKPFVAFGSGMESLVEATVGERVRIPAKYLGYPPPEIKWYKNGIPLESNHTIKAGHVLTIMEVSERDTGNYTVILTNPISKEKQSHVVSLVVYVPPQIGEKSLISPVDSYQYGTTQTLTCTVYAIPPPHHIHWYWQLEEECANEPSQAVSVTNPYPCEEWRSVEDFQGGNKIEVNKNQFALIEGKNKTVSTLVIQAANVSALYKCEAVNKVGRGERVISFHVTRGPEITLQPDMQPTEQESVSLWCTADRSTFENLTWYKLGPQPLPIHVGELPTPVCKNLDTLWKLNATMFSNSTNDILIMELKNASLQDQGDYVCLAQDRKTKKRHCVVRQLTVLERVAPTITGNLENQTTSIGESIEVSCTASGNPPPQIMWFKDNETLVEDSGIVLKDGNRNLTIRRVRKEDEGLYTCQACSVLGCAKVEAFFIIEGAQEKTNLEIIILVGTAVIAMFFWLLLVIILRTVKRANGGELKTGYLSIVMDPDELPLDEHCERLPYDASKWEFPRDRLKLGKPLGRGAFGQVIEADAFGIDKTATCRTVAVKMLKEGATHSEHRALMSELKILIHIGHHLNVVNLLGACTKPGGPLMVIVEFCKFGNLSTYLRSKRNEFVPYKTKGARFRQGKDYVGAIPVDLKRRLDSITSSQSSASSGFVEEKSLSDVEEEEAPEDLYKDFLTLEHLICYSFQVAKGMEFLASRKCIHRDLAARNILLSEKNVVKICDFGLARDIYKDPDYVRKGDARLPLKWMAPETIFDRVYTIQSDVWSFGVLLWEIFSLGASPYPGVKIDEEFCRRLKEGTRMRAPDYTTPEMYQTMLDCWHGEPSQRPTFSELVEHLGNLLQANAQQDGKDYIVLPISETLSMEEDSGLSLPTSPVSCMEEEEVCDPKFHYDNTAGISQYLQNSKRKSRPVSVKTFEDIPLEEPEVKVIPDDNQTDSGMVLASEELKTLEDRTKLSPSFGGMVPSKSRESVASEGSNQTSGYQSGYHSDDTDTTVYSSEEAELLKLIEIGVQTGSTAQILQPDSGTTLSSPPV
test.protocol: Inhibitory activity against KDR phosphorylation (NIH 3T3 cells transfected with human KDR, VEGF)
Format: cell-based
run.parameters: VEGF 100 ng/ml
Answer each item with its documented IC50.

Task: IC50 lookup needed for COc1cc2nccc(Oc3ccc(NC(=O)Oc4ccccc4C)cc3)c2cc1OC , thanks.
Output: 38 nM

Task: Subsequent entry: CCN(CC)CCNC(=O)Nc1ccc(Oc2ccnc3cc(OC)c(OC)cc23)cc1
Output: > 1000 nM

Task: Subsequent entry: COc1cc2nccc(Oc3cc(C)c(NC(=O)OC4CCCCCC4)cc3C)c2cc1OC
Output: > 1000 nM

----------
tgt: PDGF-Ra (Homo sapiens, UniProt P16234)
Construct: host or cells: G-292 human osteosarcoma cells
Sequence (P16234 24-1089): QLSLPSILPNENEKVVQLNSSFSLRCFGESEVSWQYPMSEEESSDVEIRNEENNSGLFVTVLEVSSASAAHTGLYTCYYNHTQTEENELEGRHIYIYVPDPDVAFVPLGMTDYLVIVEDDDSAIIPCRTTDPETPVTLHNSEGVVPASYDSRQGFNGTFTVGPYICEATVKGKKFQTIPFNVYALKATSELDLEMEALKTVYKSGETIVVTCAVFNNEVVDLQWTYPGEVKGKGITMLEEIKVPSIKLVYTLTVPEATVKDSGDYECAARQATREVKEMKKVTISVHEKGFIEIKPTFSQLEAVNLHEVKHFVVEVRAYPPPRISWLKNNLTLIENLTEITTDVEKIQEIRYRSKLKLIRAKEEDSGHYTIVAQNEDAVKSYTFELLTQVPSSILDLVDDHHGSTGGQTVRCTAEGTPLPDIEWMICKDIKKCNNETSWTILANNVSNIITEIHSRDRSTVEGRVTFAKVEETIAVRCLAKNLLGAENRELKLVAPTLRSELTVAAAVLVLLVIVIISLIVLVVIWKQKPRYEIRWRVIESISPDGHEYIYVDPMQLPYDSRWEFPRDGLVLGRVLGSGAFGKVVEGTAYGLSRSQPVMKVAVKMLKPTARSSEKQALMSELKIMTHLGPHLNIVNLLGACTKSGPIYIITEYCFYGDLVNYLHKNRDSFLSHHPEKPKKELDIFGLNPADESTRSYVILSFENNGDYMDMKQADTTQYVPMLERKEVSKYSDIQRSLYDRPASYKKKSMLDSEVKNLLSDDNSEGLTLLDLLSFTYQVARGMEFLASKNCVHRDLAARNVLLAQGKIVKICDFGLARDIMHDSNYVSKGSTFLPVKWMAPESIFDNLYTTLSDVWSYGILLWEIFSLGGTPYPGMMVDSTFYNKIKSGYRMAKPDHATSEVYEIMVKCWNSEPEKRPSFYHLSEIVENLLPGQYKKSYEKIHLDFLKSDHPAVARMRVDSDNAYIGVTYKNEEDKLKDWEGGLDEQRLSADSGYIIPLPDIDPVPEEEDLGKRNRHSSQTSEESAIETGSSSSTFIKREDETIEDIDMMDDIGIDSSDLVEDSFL
test.protocol: Inhibitory activity against PDGF-Ra phosphorylation by PDGF-AA stimulation using G292
Assay type: cell-based
run.parameters: Pharmacological Test Example 1; > means inhibition at indicated concentration not more than 50%, < and << not less than 50%; read-out: PDGF (E) IC50
pIC50: −log10 of the molar value.
Answer each item with its documented pIC50.

Task: pIC50 lookup needed for COc1cc2nccc(Oc3ccc(NC(=O)OCCCCCCN(C)C)c(C)c3C)c2cc1OC [Example 311] , thanks.
Output: > 8.00

Task: Subsequent entry: COc1cc2ncnc(Oc3ccc(NC(=O)OCCCSc4ccc(C(C)(C)C)cc4)c(Cl)c3)c2cc1OC [Example 76]
Output: < 7.00

Task: Subsequent entry: COc1cc2ncnc(Oc3cc(C)c(NC(=O)OC4CCCC4)cc3C)c2cc1OC [Example 392]
Output: < 7.00

----------
Answer each item with its documented pIC50.
tgt: PDGF-Ra (Homo sapiens, UniProt P16234)
Construct: host or cells: G-292 human osteosarcoma cells
test.protocol: Inhibitory activity against PDGF-Ra phosphorylation by PDGF-AA stimulation using G292
Assay type: cell-based
run.parameters: Pharmacological Test Example 1; > means inhibition at indicated concentration not more than 50%, < and << not less than 50%; read-out: PDGF (E) IC50
Reminder that pIC50 means the negative base-10 logarithm of the concentration expressed in mol/L.

Task: pIC50 lookup needed for CCC(CC)OC(=O)Nc1ccc(Oc2ccnc3cc(OC)c(OC)cc23)c(C)c1C , thanks.
Output: 7.80

Task: Subsequent entry: COc1cc2ncnc(Oc3ccc(NC(=O)OC(C)c4cccc(C(F)(F)F)c4)c(Cl)c3)c2cc1OC (stereo not drawn)
Output: 7.85

Task: Subsequent entry: COc1ccccc1COC(=O)Nc1ccc(Oc2ccnc3cc(OC)c(OC)cc23)cc1
Output: 7.96

----------
tgt: c-kit (Homo sapiens, UniProt P10721)
Construct: MO7e (human megakaryocytic leukemia cell line) which had been arrested for 20 hr; endogenous in cells; host or cells: MO7e human megakaryocytic leukemia cell line
Sequence (P10721 26-976): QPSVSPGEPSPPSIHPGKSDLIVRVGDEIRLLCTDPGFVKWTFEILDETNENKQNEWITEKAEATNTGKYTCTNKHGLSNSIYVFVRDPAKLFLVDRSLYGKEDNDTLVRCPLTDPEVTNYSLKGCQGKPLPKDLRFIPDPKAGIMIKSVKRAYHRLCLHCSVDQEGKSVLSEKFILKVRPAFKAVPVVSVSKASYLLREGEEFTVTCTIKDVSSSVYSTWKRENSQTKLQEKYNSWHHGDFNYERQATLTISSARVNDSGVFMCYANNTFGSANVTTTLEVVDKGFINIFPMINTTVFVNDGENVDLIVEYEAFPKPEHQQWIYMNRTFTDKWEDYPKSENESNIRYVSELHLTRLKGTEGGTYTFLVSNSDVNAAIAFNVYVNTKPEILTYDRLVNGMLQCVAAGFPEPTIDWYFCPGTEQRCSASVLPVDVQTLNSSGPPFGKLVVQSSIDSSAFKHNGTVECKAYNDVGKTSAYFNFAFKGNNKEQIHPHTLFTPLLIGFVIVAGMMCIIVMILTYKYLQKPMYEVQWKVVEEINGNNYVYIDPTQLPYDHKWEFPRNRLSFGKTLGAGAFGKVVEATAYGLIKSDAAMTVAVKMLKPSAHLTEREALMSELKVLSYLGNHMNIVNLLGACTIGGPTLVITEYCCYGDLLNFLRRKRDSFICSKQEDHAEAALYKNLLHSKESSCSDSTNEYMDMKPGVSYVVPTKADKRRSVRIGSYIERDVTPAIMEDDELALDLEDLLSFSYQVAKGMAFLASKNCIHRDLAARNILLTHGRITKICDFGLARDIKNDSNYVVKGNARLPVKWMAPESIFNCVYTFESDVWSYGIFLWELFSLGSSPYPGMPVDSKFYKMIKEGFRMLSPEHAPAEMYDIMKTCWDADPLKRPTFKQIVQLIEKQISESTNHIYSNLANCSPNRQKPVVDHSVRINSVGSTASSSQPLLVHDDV
test.protocol: Inhibitory activity against c-kit autophosphorylation (MO7e cells, h-SCF)
Format: cell-based
run.parameters: Mo7e, figure within parentheses in −( ) or >1000( ); at 1000 nM
measure.name: inhibition at 1 µM (%)
Give the value in % but do not write % after it.

Task: inhibition at 1 µM lookup needed for COc1cc2nccc(Oc3ccc(NC(=S)NC(=O)c4ccc(Br)s4)cc3Cl)c2cc1OC [Example 693] , thanks.
Output: 46

Task: Subsequent entry: CCOc1ccc(C(=O)NC(=S)Nc2ccc(Oc3ncnc4cc(OC)c(OC)cc34)cc2)cc1 [Example 716]
Output: 19

Task: Subsequent entry: COc1cc2nccc(Oc3ccc(NC(=S)NC(=O)c4cc(C)oc4C)c(C)c3)c2cc1OC [Example 698]
Output: 29

Task: Subsequent entry: COc1cc2ncnc(Oc3ccc(NC(=O)OCc4ccccc4C)c([N+](=O)[O-])c3)c2cc1OC [Example 505]
Output: 25

Task: Subsequent entry: COc1cc2nccc(Oc3ccc(NC(=S)NC(=O)C4C(C)(C)C4(C)C)cc3Cl)c2cc1OC [Example 760]
Output: 48

Task: Subsequent entry: COc1cc2ncnc(Oc3ccc(NC(=O)OCc4ccccc4Cl)c([N+](=O)[O-])c3)c2cc1OC [Example 504]
Output: 42

Task: Subsequent entry: CCCCN(CCCC)CCNC(=O)Nc1cc(C)c(Oc2ccnc3cc(OC)c(OC)cc23)cc1C [Example 683]
Output: 26

Task: Subsequent entry: CCCC(CCC)OC(=O)N(C)c1ccc(Oc2ncnc3cc(OC)c(OC)cc23)cc1Cl [Example 481]
Output: 3

Task: Subsequent entry: COc1cc2ncnc(Oc3ccc(NC(=S)NC(=O)Cc4ccc5ccccc5c4)cc3)c2cc1OC [Example 711]
Output: 17

Task: Subsequent entry: COc1cc2ncnc(Oc3ccc(OCC(=O)N4CCc5ccccc5C4)cc3)c2cc1OC [Example 802]
Output: 42

Task: Subsequent entry: COc1cc2nccc(Oc3ccc(NC(=S)NC(=O)c4ccc(Cl)s4)cc3Cl)c2cc1OC [Example 695]
Output: 37

Task: Subsequent entry: CCCCN(CCCC)CCCNC(=S)Nc1ccc(Oc2ccnc3cc(OC)c(OC)cc23)c(C)c1C [Example 547]
Output: 41

Task: Subsequent entry: COc1cc2ncnc(Oc3ccc(NC(=O)OC4CCCCC4)c([N+](=O)[O-])c3)c2cc1OC [Example 503]
Output: 36

Task: Subsequent entry: COc1cc2nccc(Oc3ccc(NC(=S)NC(=O)C4(C)CC4(Cl)Cl)cc3)c2cc1OC (stereo not shown) [Example 749]
Output: 41

Task: Subsequent entry: COc1cc2ncnc(Oc3ccc(NC(=S)NCCN4CCCCC4)cc3)c2cc1OC [Example 517]
Output: 33

Task: Subsequent entry: COc1cc2nccc(Oc3ccc(NC(=S)NC(=O)Cc4ccc5ccccc5c4)cc3Cl)c2cc1OC [Example 710]
Output: 30

Task: Subsequent entry: C#CCC(CC)OC(=O)Nc1ccc(Oc2ncnc3cc(OC)c(OC)cc23)cc1[N+](=O)[O-] (stereo not shown) [Example 510]
Output: 17

Task: Subsequent entry: COc1cc2ncnc(Oc3ccc(NC(=O)OC4CCN(C)CC4)cc3)c2cc1OC [Example 469]
Output: 28

Task: Subsequent entry: COc1cc2nccc(Oc3ccc(NC(=O)NC4CCN(Cc5ccccc5)CC4)c(C)c3C)c2cc1OC [Example 635]
Output: 23

Task: Subsequent entry: COc1cc2nccc(Oc3cc(C)c(NC(=S)NCCN4CCCCC4)cc3C)c2cc1OC [Example 514]
Output: 29

Task: Subsequent entry: COc1cc2ncnc(Oc3ccc(NC(=S)NC(=O)Cc4cccc5ccccc45)cc3)c2cc1OC [Example 709]
Output: 19

Task: Subsequent entry: CCCCN(CCCC)CCNC(=O)Nc1ccc(Oc2ncnc3cc(OC)c(OC)cc23)cc1[N+](=O)[O-] [Example 687]
Output: 34

----------
tgt: PDGF-Ra (Homo sapiens)
Construct: host or cells: G-292 human osteosarcoma cells
test.protocol: Inhibitory activity against PDGF-Ra phosphorylation by PDGF-AA stimulation using G292
Type: cell-based
run.parameters: > means inhibition at indicated concentration not more than 50%, < and << not less than 50%; read-out: PDGF (E) IC50
pIC50: −log10 of the molar value.
Answer each item with its documented pIC50.

Task: pIC50 lookup needed for COc1cc2ncnc(Oc3ccc(NC(=S)NCCN4CCCC4)cc3)c2cc1OC [Example 530] , thanks.
Output: < 7.00

Task: Subsequent entry: CCC(C(=O)NC(=S)Nc1ccc(Oc2ccnc3cc(OC)c(OC)cc23)cc1)c1ccccc1 (stereo not shown) [Example 747]
Output: 7.46

Task: Subsequent entry: COc1cc2nccc(Oc3cc(C)c(NC(=S)NC(=O)c4cc(C)oc4C)cc3C)c2cc1OC [Example 717]
Output: < 7.00

Task: Subsequent entry: CCCCN(CCCC)C(C)CNC(=S)Nc1ccc(Oc2ncnc3cc(OC)c(OC)cc23)cc1 (stereo not shown) [Example 532]
Output: < 7.00

Task: Subsequent entry: CCCCOc1ccc(C(=O)NC(=S)Nc2ccc(Oc3ccnc4cc(OC)c(OC)cc34)cc2)cc1 [Example 751]
Output: 7.15

Task: Subsequent entry: C#CCC(CC)OC(=O)Nc1ccc(Oc2ccnc3cc(OC)c(OC)cc23)c(C)c1C (stereo not shown) [Example 410]
Output: 7.92

Task: Subsequent entry: COc1cc2nccc(Oc3ccc(NC(=O)OCCCN4CCOCC4)cc3)c2cc1OC [Example 421]
Output: > 8.00

Task: Subsequent entry: COc1cc2nccc(Oc3ccc(NC(=S)NC(=O)N4CCc5ccccc5C4)cc3)c2cc1OC [Example 1130]
Output: > 8.00

Task: Subsequent entry: COc1cc2nccc(Oc3ccc(NCCCOc4ccccc4C)cc3)c2cc1OC [Example 888]
Output: 7.92

Task: Subsequent entry: COc1cc2nccc(Oc3ccc(NC(=S)NC(=O)c4cccc(F)c4)c(Cl)c3)c2cc1OC [Example 1163]
Output: < 7.00

Task: Subsequent entry: COc1cc2nccc(Oc3ccc(NC(=S)NC(=O)c4cc(C)cc(C)c4)cc3)c2cc1OC [Example 1129]
Output: < 7.00

Task: Subsequent entry: CCCCCOc1ccc(C(=O)NC(=S)Nc2ccc(Oc3ccnc4cc(OC)c(OC)cc34)cc2)cc1 [Example 753]
Output: < 7.00

Task: Subsequent entry: COc1cc2ncnc(Oc3ccc(NC(=S)NC(=O)c4ccccc4C(F)(F)F)cc3)c2cc1OC [Example 1157]
Output: > 8.00

Task: Subsequent entry: COc1cc2ncnc(Oc3ccc(NC(=O)N4CCN(c5ccccc5)CC4)cc3)c2cc1OC [Example 691]
Output: < 7.00

Task: Subsequent entry: COc1cc2nccc(Oc3ccc(NC(=O)NCCN4CCCCC4)c([N+](=O)[O-])c3)c2cc1OC [Example 678]
Output: > 8.00

Task: Subsequent entry: COc1cc2nccc(Oc3ccc(NC(=O)Oc4ccc(C#N)cc4)c(C)c3C)c2cc1OC [Example 461]
Output: 7.22
